This collection of values is drawn from patent US20220348558A1.

test system: VEEV TC83; experiment: microbe, parasite or virus in culture; format: cell-based; conditions: Venezuelan equine encephalitis virus, Vero 76, 48 h, read-out: VEEV TC83 EC50 nM

- molecule: "COc1ccc(-n2c([C@H]3CCCN3)nc3c(-c4ccc(C(F)(F)F)nc4)cc(C#N)cc3c2=O)cc1F"
  system name: "VEEV TC83"
  EC50: "1 to 50 nM"
- molecule: "COc1ccc(-n2c([C@H]3CCCN3)nc3c(-c4cncnc4)cc([N+](=O)[O-])cc3c2=O)cc1F"
  system name: "VEEV TC83"
  EC50: "1 to 50 nM"
- molecule: "COc1ccc(-n2c([C@@H]3CCCN3C3CCOCC3)nc3ccc(F)c(F)c3c2=O)cc1"
  system name: "VEEV TC83"
  EC50: "> 1000 nM"
- molecule: "COc1ccc(-n2c(C3CCCN3)nc3c(-c4ccc(NS(C)(=O)=O)cc4)cc(C#N)cc3c2=O)cc1F (stereo not drawn)"
  system name: "VEEV TC83"
  EC50: "51 to 150 nM"
- molecule: "COc1ccc(-n2c(C3CCCN3)nc3c(-c4ccc(N5CCOCC5)cc4)cc(C#N)cc3c2=O)cc1F (stereo not drawn)"
  system name: "VEEV TC83"
  EC50: "1 to 50 nM"
- molecule: "COCCOc1c(F)cc(-n2c(C3CCCN3)nc3c(-c4cc(C)nc(C)c4)cc(C#N)cc3c2=O)cc1F (stereo not drawn)"
  system name: "VEEV TC83"
  EC50: "51 to 150 nM"
- molecule: "COc1ccc(-n2c([C@@H]3CC(=O)CN3)nc3c(-c4ccc(C)nc4)cc(C#N)cc3c2=O)cc1F"
  system name: "VEEV TC83"
  EC50: "151 to 500 nM"
- molecule: "COc1ccc(-n2c([C@@H]3CCN(C)C3)nc3c(C)cc([N+](=O)[O-])cc3c2=O)cc1F"
  system name: "VEEV TC83"
  EC50: "151 to 500 nM"
- molecule: "COc1ccc(-n2c(C3CCCN3)nc3c(-c4cnc5ccccc5c4)cc(C#N)cc3c2=O)cc1F (stereo not drawn)"
  system name: "VEEV TC83"
  EC50: "1 to 50 nM"
- molecule: "COc1ccc(-n2c(C3CCCN3)nc3c(-c4ccnc(C)c4)cc(C#N)cc3c2=O)cc1F (stereo not drawn)"
  system name: "VEEV TC83"
  EC50: "1 to 50 nM"
- molecule: "COc1ccc(-n2c([C@H]3CCCN3)nc3c(-c4ccnc(F)c4)cc(C#N)cc3c2=O)cc1F"
  system name: "VEEV TC83"
  EC50: "1 to 50 nM"
- molecule: "COc1ccc(-n2c(C3CCCN3)nc3c(-c4ccc(C)nc4)cc(C#N)cc3c2=O)cc1F (stereo not drawn)"
  system name: "VEEV TC83"
  EC50: "1 to 50 nM"
- molecule: "COc1ccc(-n2c([C@@]3(C)CCCN3)nc3c(-c4ccc(C)nc4)cc(C#N)cc3c2=O)cc1F"
  system name: "VEEV TC83"
  EC50: "1 to 50 nM"
- molecule: "COc1ccc(-n2c([C@@H]3CCCN3)nc3ccc(C#N)cc3c2=O)cc1"
  system name: "VEEV TC83"
  EC50: "51 to 150 nM"
- molecule: "COc1ccc(-n2c([C@H]3CCNC3)nc3ccc([N+](=O)[O-])cc3c2=O)cc1"
  system name: "VEEV TC83"
  EC50: "1 to 50 nM"
- molecule: "COc1ccc(-n2c([C@H]3CCCN3)nc3c(F)cc(C#N)cc3c2=O)cc1"
  system name: "VEEV TC83"
  EC50: "51 to 150 nM"
- molecule: "COc1ccc(-n2c([C@H]3CCCN3)nc3ccc([N+](=O)[O-])cc3c2=O)cc1"
  system name: "VEEV TC83"
  EC50: "1 to 50 nM"
- molecule: "COc1ccc(-n2c(C3CCCN3)nc3ccc([N+](=O)[O-])cc3c2=O)cc1 (stereo not drawn)"
  system name: "VEEV TC83"
  EC50: "1 to 50 nM"
- molecule: "O=c1c2cc([N+](=O)[O-])ccc2nc(C2CCCN2)n1-c1ccccc1Cl (stereo not drawn)"
  system name: "VEEV TC83"
  EC50: "> 1000 nM"
- molecule: "COc1ccc(-n2c(C3CCCN3C)nc3c(-c4ccc(C)nc4)cc(C#N)cc3c2=O)cc1F (stereo not drawn)"
  system name: "VEEV TC83"
  EC50: "1 to 50 nM"
- molecule: "COc1ccc(-n2c([C@H]3CCCN3)nc3c(Br)cc([N+](=O)[O-])cc3c2=O)cc1"
  system name: "VEEV TC83"
  EC50: "1 to 50 nM"
- molecule: "[N-]=[N+]=Nc1cccc(-n2c([C@H]3CCCN3)nc3ccc([N+](=O)[O-])cc3c2=O)c1"
  system name: "VEEV TC83"
  EC50: "151 to 500 nM"
- molecule: "COc1ccc(-n2c([C@H]3CCCN3)nc3c(C)cc([N+](=O)[O-])cc3c2=O)cc1F"
  system name: "VEEV TC83"
  EC50: "1 to 50 nM"
- molecule: "COc1ccc(-n2c(C3CCCN3)nc3c(-c4ccc(O)nc4)cc(C#N)cc3c2=O)cc1F (stereo not drawn)"
  system name: "VEEV TC83"
  EC50: "1 to 50 nM"
- molecule: "COc1ccc(-n2c(C3CCCN3)nc3c(Cc4ccc(C)nc4)cc(C#N)cc3c2=O)cc1F (stereo not drawn)"
  system name: "VEEV TC83"
  EC50: "51 to 150 nM"
- molecule: "Cc1ccc(-c2cc(C#N)cc3c(=O)n(-c4ccc(N(C)C)c(F)c4)c(C4CCCN4)nc23)cn1 (stereo not drawn)"
  system name: "VEEV TC83"
  EC50: "1 to 50 nM"
- molecule: "N#Cc1cccc(-n2c([C@H]3CCCN3)nc3ccc([N+](=O)[O-])cc3c2=O)c1"
  system name: "VEEV TC83"
  EC50: "> 1000 nM"
- molecule: "O=c1c2cc([N+](=O)[O-])ccc2nc(C2CCCN2)n1-c1ccc(F)cc1 (stereo not drawn)"
  system name: "VEEV TC83"
  EC50: "51 to 150 nM"
- molecule: "COc1c(F)cc(-n2c(C3CCCN3)nc3c(-c4cc(C)nc(C)c4)cc(C#N)cc3c2=O)cc1F (stereo not drawn)"
  system name: "VEEV TC83"
  EC50: "51 to 150 nM"
- molecule: "COc1c(F)cc(-n2c(C34CC(CN3)C4)nc3c(-c4ccnc(C)c4)cc(C#N)cc3c2=O)cc1F"
  system name: "VEEV TC83"
  EC50: "51 to 150 nM"

###

system: WEEV California; test: microbe, parasite or virus in culture; type: cell-based; settings: Western equine encephalitis virus, Vero 76, 48 h, read-out: WEEV California EC50 nM
recorded endpoint: EC50

- compound: "COc1ccc(-n2c([C@H]3CCCN3)nc3c(-c4cccnc4)cc(C#N)cc3c2=O)cc1F"
  system name: "WEEV California"
  result: "1 to 50 nM"
- compound: "COc1ccc(-n2c(C3CCCN3)nc3c(-c4ccc(CO)cc4)cc(C#N)cc3c2=O)cc1F (centres unmarked)"
  system name: "WEEV California"
  result: "1 to 50 nM"
- compound: "COc1ccc(-n2c([C@H]3CC(F)(F)CN3)nc3c(-c4ccc(C)nc4)cc(C#N)cc3c2=O)cc1F"
  system name: "WEEV California"
  result: "51 to 150 nM"
- compound: "COc1ccc(-n2c([C@@H]3CCCN3)nc3c(C)cc(C#N)cc3c2=O)cc1"
  system name: "WEEV California"
  result: "501 to 1000 nM"
- compound: "COc1ccc(-n2c([C@H]3CCCN3)nc3c(Br)cc(C#N)cc3c2=O)cc1F"
  system name: "WEEV California"
  result: "1 to 50 nM"
- compound: "COc1ccc(-n2c([C@@H]3CCCN3)nc3ccc(C#N)cc3c2=O)cc1"
  system name: "WEEV California"
  result: "501 to 1000 nM"
- compound: "O=c1c2cc([N+](=O)[O-])ccc2nc(C2CCCN2)n1-c1ccccc1Cl (centres unmarked)"
  system name: "WEEV California"
  result: "> 1000 nM"
- compound: "COc1ccc(-n2c([C@H]3CCCN3C)nc3c(C)cc([N+](=O)[O-])cc3c2=O)cc1F"
  system name: "WEEV California"
  result: "51 to 150 nM"

###

// reported EC50 per item
test system: VEEV TC83; assay: microbe, parasite or virus in culture; format: cell-based; details: Venezuelan equine encephalitis virus, Vero 76, 48 h, read-out: VEEV TC83 EC50 nM

- smiles structure: "COc1ccc(-n2c([C@H]3C[C@H](F)CN3)nc3c(C)cc(C#N)cc3c2=O)cc1F"
  EC50: "151 to 500 nM"
- smiles structure: "COc1ccc(-n2c([C@H]3CCCN3)nc3ccc([N+](=O)[O-])cc3c2=O)cc1F"
  EC50: "1 to 50 nM"
- smiles structure: "COc1ccc(-n2c([C@H]3CCCN3)nc3ccc(F)c(F)c3c2=O)cc1"
  EC50: "151 to 500 nM"
- smiles structure: "COc1ccc(-n2c([C@H]3CCCN3)nc3c(C)cc(C#N)cc3c2=O)cc1"
  EC50: "1 to 50 nM"
